Ref: patent US10201531B2

# Tested on: Nrf2
# ASSAY INFO: Evaluation of Nrf2 activation ability (Nrf2d-LacZ / Keap1 HEK293 reporter, Beta-Glo luminescence)
# Assay type: cell-based, human
# RUN CONDITIONS: rated A/B/C, Pharmacological Test Example 1
pEC50: −log10 of the molar value.
# Lookup of reported pEC50 keyed by entry

Guide cases for pEC50, answers given:
>>> experimental_result("[O-][s+]1nc(O)cc1-n1ncc2cc(-c3ccc(N4CCCCC4)nc3)ccc21 (stereo not drawn)")
"> 6.00"
>>> experimental_result("Cc1cccc2cnn(-c3cc(O)n[s+]3[O-])c12 (stereo not drawn)")
"5.30 to 6.00"
>>> experimental_result("CN1CCOc2nc(-c3ccc4c(cnn4-c4cc(O)n[s+]4[O-])c3)ccc21 (stereo not drawn)")
"> 6.00"
>>> experimental_result("CC1(C)CNc2ncc(-c3ccc4c(cnn4-c4cc(O)n[s+]4[O-])c3)cc2O1 (stereo not drawn)")
"> 6.00"

Q. Can you share its pEC50? I mean this compound: COc1ncccc1-c1ccc2c(cnn2-c2cc(O)n[s+]2[O-])c1 (stereo not drawn)
A. > 6.00

Q. Can you share its pEC50? I mean this compound: [O-][s+]1nc(O)cc1-n1ncc2cc(-c3ccc(C4CC4)nc3)ncc21 (stereo not drawn)
A. > 6.00

Q. Can you share its pEC50? I mean this compound: COc1cc(-c2cncc(C)c2)cc2c1cnn2-c1cc(O)n[s+]1[O-] (stereo not drawn)
A. 5.30 to 6.00

Q. Can you share its pEC50? I mean this compound: COc1cc(-c2cnc3c(c2)OCCN3C)c2cnn(-c3cc(O)n[s+]3[O-])c2c1 (stereo not drawn)
A. 5.30 to 6.00

Q. Can you share its pEC50? I mean this compound: [O-][s+]1nc(O)cc1-n1ncc2c(-c3ccccc3)cccc21 (stereo not drawn)
A. 5.30 to 6.00

* * *

# Lookup of reported EC50 keyed by entry
# Test system: Nrf2
# ASSAY INFO: Evaluation of Nrf2 activation ability (Nrf2d-LacZ / Keap1 HEK293 reporter, Beta-Glo luminescence)
# Assay type: cell-based, human
# RUN CONDITIONS: rated A/B/C, Pharmacological Test Example 1

>>> experimental_result("Cc1ccc2c(cnn2-c2cc(O)n[s+]2[O-])c1 (centres unmarked)")
"5000 to 10000 nM"
>>> experimental_result("CN1CCOc2cc(-c3ccc4c(cnn4-c4cc(O)n[s+]4[O-])c3)c(C(F)F)nc21 (centres unmarked)")
"< 1000 nM"
>>> experimental_result("COc1cc2c(cnn2-c2cc(O)n[s+]2[O-])cc1Br (centres unmarked)")
"1000 to 5000 nM"
>>> experimental_result("[O-][s+]1nc(O)cc1-n1ncc2cc(-c3cncc(N4CCCC4)c3)ccc21 (centres unmarked)")
"< 1000 nM"
>>> experimental_result("CN1CCOc2cc(-c3ccc4c(cnn4-c4cc(O)n[s+]4[O-])c3)cnc21 (centres unmarked)")
"< 1000 nM"

Q. Can you share its EC50? I mean this molecule: COc1cc(-c2ccnc(N3CCCC3)c2)c2cnn(-c3cc(O)n[s+]3[O-])c2c1 (centres unmarked)
A. 1000 to 5000 nM

Q. Can you share its EC50? I mean this molecule: O=C(NC1CCCCC1)N1CCC(c2ccc3c(cnn3-c3cc(O)n[s+]3[O-])c2)CC1 (centres unmarked)
A. 5000 to 10000 nM
